Heads up, these compounds all have IC50 values measured for human TREX1 (Homo sapiens (Human)).
value_type: IC50

compound	value_type	test_value
CCOC(=O)CC[C@H](C(=O)NCc1cc(Cl)c(Cl)cc1F)N1CCC(CCc2ccccc2)N2C[C@H](N)C[C@H]2C1=O (stereo partly drawn)	IC50	< 1000 nM
N[C@@H]1C[C@H]2C(=O)N([C@H](CCC(=O)O)C(=O)NCc3ccc(Cl)c(Cl)c3)CCC(COc3cnccn3)N2C1 (stereo partly drawn)	IC50	1000 to 9990 nM
COc1ccc(OCC2CCN([C@H](CCC(=O)O)C(=O)NCc3ccc(Cl)c(Cl)c3)C(=O)[C@@H]3C[C@@H](N)CN23)cc1 (stereo partly drawn)	IC50	1000 to 9990 nM
